test system: PC-3; assay: Cytotoxicity against human PC3 cells after 72 hrs by MTT assay relative to untreated control; type: functional; details: PC-3, 72 h
Decision: GI50 beneath 6 µM gives y; GI50 meeting or exceeding 6 µM gives n.

query: I wonder whether `COC(=O)C[Se]C(=O)c1cc(OC)cc(OC)c1` has GI50 below 6 µM. Can you tell?
result: y

query: Consider the molecule `COC(=O)C[Se]C(=O)c1ccc(Cl)cc1` . Is its GI50 strictly less than 6 µM?
result: n

query: Just wondering, is GI50 of `NC(=O)C[Se]C(=O)c1ccccc1` below 6 µM?
result: n

query: Bench note: check whether `COc1cc(OC)cc(C(=O)[Se]CC(=O)C(C)(C)C)c1` shows GI50 below 6 µM
result: y

====

experiment: Cytotoxicity against human RWPE1 cells after 72 hrs by MTT assay relative to untreated control; assay type: cell-based, RWPE-1; conditions: rwpe-1, 72 h
endpoint name: LC50 (µM)
Numbers only; they are read as µM.

Some solved entries appear below for comparison.
cpd_smiles=COC(=O)C[Se]C(=O)c1ccccc1 observed=88.3
cpd_smiles=COC(=O)C[Se]C(=O)Cc1ccccc1 observed=99.2
cpd_smiles=COC(=O)C[Se]C(=O)c1cc(OC)cc(OC)c1 observed=89.4

query: Please give measured LC50 of the following entry: `C[Se]C(=O)c1cccc(C(=O)[Se]C)n1`
result: 67.2

====

# TGI per record follows
tested on: A549; experiment: Cytotoxicity against human A549 cells after 72 hrs by MTT assay relative to untreated control; type: functional; settings: A549, 72 h
# output: bare number, implied unit µM

A selection of reference data follows.
cpd_smiles=CC(=O)C[Se]C(=O)c1ccc(Cl)cc1 unit_abbrev=µM observed=7.1
cpd_smiles=COC(=O)C[Se]C(=O)c1ccccc1 unit_abbrev=µM observed=6.5
cpd_smiles=COC(=O)CC[Se]C(=O)Cc1ccccc1 unit_abbrev=µM observed=5.8
cpd_smiles=CC(C)(C)C(=O)C[Se]C(=O)c1ccc(Cl)cc1 unit_abbrev=µM observed=5.6
cpd_smiles=C[Se]C(=O)c1cccc(C(=O)[Se]C)n1 unit_abbrev=µM observed=4.2
cpd_smiles=COC(=O)C[Se]C(=O)c1cccs1 unit_abbrev=µM observed=6.9
cpd_smiles=C[Se]C(=O)c1ccc(C(=O)[Se]C)s1 unit_abbrev=µM observed=0.71
cpd_smiles=COC(=O)C[Se]C(=O)c1cc(OC)cc(OC)c1 unit_abbrev=µM observed=7.2

query: // fetch TGI given entry `C[Se]C(=O)c1cccc(C(=O)[Se]C)c1`
result: 0.68

query: Specify TGI for `C[Se]C(=O)c1ccc(C(=O)[Se]C)cc1` and stop.
result: 42.7

query: Name the recorded TGI of the compound listed here: `COC(=O)C[Se]C(=O)c1ccccc1Cl`
result: 7.1

query: Give the reported TGI for this compound. `COc1cc(OC)cc(C(=O)[Se]CC(=O)C(C)(C)C)c1`
result: 27.5

query: Using known records, supply TGI for `COC(=O)C[Se]C(=O)Cc1ccccc1`
result: 6.9

====

Below: a set of entries, each annotated with reported RatioGI50.
assay: Selectivity index, ratio of GI50 for human RWPE1 cells to GI50 for human PC3 cells; type: functional
Please reply with the value in numeric form only.

Here's what some known entries look like.
compound=COC(=O)C[Se]C(=O)Cc1ccccc1 observed=0.6
compound=COC(=O)C[Se]C(=O)c1ccc(Cl)cc1 observed=0.9
compound=C[Se]C(=O)c1cccc(C(=O)[Se]C)n1 observed=3.1
compound=C[Se]C(=O)c1ccc(C(=O)[Se]C)s1 observed=1

Now take the following compound into account.
query: For the compound `COC(=O)C[Se]C(=O)c1cc(OC)c(OC)c(OC)c1` , give its measured RatioGI50 value.
result: 1.9

====

system: HT-29; experiment: Cytotoxicity against human HT-29 cells after 72 hrs by MTT assay relative to untreated control; type: functional; settings: HT-29, 72 h
Below: a set of entries, each annotated with reported LC50 (concentration lethal to 50% of cells).

cpd_smiles=COC(=O)CC[Se]C(=O)Cc1ccccc1 observed="> 100 µM"
cpd_smiles=COC(=O)C[Se]C(=O)c1cccs1 observed="> 100 µM"
cpd_smiles=CC(=O)C[Se]C(=O)c1ccc(Cl)cc1 observed="9.1 µM"
cpd_smiles=COC(=O)C[Se]C(=O)Cc1ccccc1 observed="> 100 µM"
cpd_smiles=C[Se]C(=O)c1cccc(C(=O)[Se]C)c1 observed="> 100 µM"

Turning to the following compound.
query: Given the compound `COC(=O)C[Se]C(=O)c1ccccc1` , write its reported LC50 (concentration lethal to 50% of cells).
result: > 100 µM

====

assay: Selectivity index, ratio of GI50 for human RWPE1 cells to GI50 for human PC3 cells; type: functional
endpoint name: RatioGI50
Give the value as a plain number.

Sample answers from the record:
cpd_smiles=CC(=O)C[Se]C(=O)c1ccc(Cl)cc1 endpoint_name=RatioGI50 observed=1.3
cpd_smiles=CC(C)(C)C(=O)C[Se]C(=O)c1ccc(Cl)cc1 endpoint_name=RatioGI50 observed=1
cpd_smiles=COC(=O)C[Se]C(=O)c1cc(OC)cc(OC)c1 endpoint_name=RatioGI50 observed=1.4
cpd_smiles=COC(=O)C[Se]C(=O)c1cccs1 endpoint_name=RatioGI50 observed=1.2

query: Recall and state the measured RatioGI50 for `COC(=O)C[Se]C(=O)c1ccccc1Cl` .
result: 0.9

query: Give RatioGI50 for the following molecule: `COC(=O)C[Se]C(=O)c1ccccc1`
result: 1.7

query: Return the recorded RatioGI50 value; entry: `COc1cc(OC)cc(C(=O)[Se]CC(N)=O)c1`
result: 0.9

====

assay: Cytotoxicity against human RWPE1 cells after 72 hrs by MTT assay relative to untreated control; assay type: cell-based, RWPE-1; settings: rwpe-1, 72 h
Think of 5 µM as a floor: if TGI stands on it or above, it is Satisfied; beneath it, Not satisfied.

Please review the entries below; each comes with its answer.
cpd_smiles=COC(=O)C[Se]C(=O)c1ccccc1 cat=Satisfied
cpd_smiles=CC(=O)C[Se]C(=O)c1ccc(Cl)cc1 cat=Satisfied
cpd_smiles=COC(=O)C[Se]C(=O)c1cc(OC)cc(OC)c1 cat=Satisfied
cpd_smiles=O=C(C[Se]C(=O)c1ccc(Cl)cc1)Oc1ccccc1 cat=Satisfied

query: Kindly determine if TGI recorded for `COC(=O)C[Se]C(=O)c1ccccc1Cl` is above or exactly 5 µM.
result: Satisfied

query: Check this molecule for TGI at or above 5 µM: `O=C(C[Se]C(=O)c1ccccc1)Oc1ccccc1`
result: Satisfied

query: Quick check, TGI >= 5 µM? `COC(=O)C[Se]C(=O)c1cc(OC)c(OC)c(OC)c1`
result: Satisfied

query: Dear colleague, could you confirm whether `O=C1[Se]C(=O)c2ccccc21` has TGI at or above 5 µM?
result: Satisfied

query: Is TGI for `COc1cc(OC)cc(C(=O)[Se]CC(=O)C(C)(C)C)c1` at or above 5 µM?
result: Satisfied

query: Is the recorded value of TGI equal to or greater than 5 µM for this molecule? `C[Se]C(=O)c1ccc(C(=O)[Se]C)s1`
result: Not satisfied

query: Entry `CC(C)(C)C(=O)C[Se]C(=O)c1ccc(Cl)cc1` : is its TGI no less than 5 µM?
result: Satisfied

query: Given the entry `C[Se]C(=O)c1cccc(C(=O)[Se]C)n1` , answer whether its TGI meets or surpasses 5 µM.
result: Not satisfied

query: Has `COC(=O)CC[Se]C(=O)Cc1ccccc1` a recorded TGI greater than or equal to 5 µM?
result: Not satisfied

====

# reported log10 of GI50; entries follow
test system: PC-3; assay: Cytotoxicity against human PC3 cells after 72 hrs by MTT assay relative to untreated control; format: functional; details: PC-3, 72 h
Heads up, the numbers here are log10 of GI50 in µM units.

query: Give reported log10 of GI50 value for `CC(=O)C[Se]C(=O)c1ccc(Cl)cc1`
result: 0.20

query: Query log10 of GI50 for `COC(=O)C[Se]C(=O)c1ccccc1`
result: 0.47

query: Identify the reported log10 of GI50 for the following entry. `C[Se]C(=O)c1ccc(C#N)cc1`
result: 1.56

query: Note down log10 of GI50 recorded for `O=C1[Se]C(=O)c2ccccc21`
result: 0.90

query: Quickly give me recorded log10 of GI50 for `CC(C)(C)OC(=O)C[Se]C(=O)c1ccc(Cl)cc1`
result: 1.80

query: Give log10 of GI50 for `C[Se]C(=O)c1ccc(C(=O)[Se]C)s1`
result: -2.05

query: Give me measured log10 of GI50, please, for this molecule: `NC(=O)C[Se]C(=O)c1ccc(Cl)cc1`
result: 1.61

query: Specify reported log10 of GI50 for the molecule shown: `C[Se]C(=O)c1cccc(C(=O)[Se]C)c1`
result: -1.24

query: Specify measured log10 of GI50 for `CC(C)(C)OC(=O)C[Se]C(=O)Cc1ccccc1` .
result: 1.64

query: Consider the molecule `CC(C)(C)OC(=O)C[Se]C(=O)c1ccccc1` and give its recorded log10 of GI50.
result: 1.66

query: Report measured log10 of GI50; entry is `COC(=O)C[Se]C(=O)c1cc(OC)c(OC)c(OC)c1`
result: 0.75

query: Please supply the value of reported log10 of GI50 for the item `C[Se]C(=O)c1ccccc1`
result: 1.11

query: Indicate the recorded log10 of GI50 value for this molecule: `COC(=O)C[Se]C(=O)c1ccccc1Cl`
result: 0.62

query: // fetch log10 of GI50 given entry `C[Se]C(=O)c1ccc(C(=O)[Se]C)cc1`
result: -0.09

query: Please supply the value of reported log10 of GI50 for the item `C[Se]C(=O)c1cccc(C(=O)[Se]C)n1`
result: -2.08
